FYI, the data here is from PubChem BioAssay AID1159580.

# experiment notes: chemical genetic growth profiling, strain panel (AID 1159580);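 note: tested at 20 µM; growth read once vehicle control cultures reached saturation at 30 °C; 1 = growth at the plate median or of vehicle wells; lower values mean less growth of the strain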
# study conditions: S. cerevisiae deletion strains, growth OD, locus YDR502C, strain sam2
In all, about 5,500 compounds went through this assay and about 2,000 (36%) were called active. Not shown: some 18% with an inconclusive outcome. Cut-off read from the data, not from the text of the source: active = normalized growth mostly below about 0.91 (no sharp cut-off); inconclusive = no clear call, values can overlap the other calls; inactive = mostly above about 0.92. The list shows a part of the results.
Classes used: 1 (active), -1 (inactive)

| compound | label value |
| --- | --- |
| COC(=O)[C@@H]1C(O)CC[C@H]2CN3CCc4c([nH]c5ccccc45)[C@@H]3C[C@@H]21 (some centres undefined) | -1 |
| C=CC(C)(C)c1c2c(c(O)c3c(=O)c4ccc(O)c(O)c4oc13)C=CC(C)(C)O2 | -1 |
| CC1(C)S[C@@H]2[C@H](NC(=O)[C@H](NC(=O)N3CCNC3=O)c3ccccc3)C(=O)N2C1C(=O)O (some centres undefined) | -1 |
| O=C(O)COc1cc(Cl)c(Cl)cc1Cl | -1 |
| CC(=O)O[C@H]1C(=O)[C@@]2(C)C([C@H](OC(=O)c3ccccc3)[C@]3(O)C[C@H](OC(=O)[C@H](O)[C@@H](NC(=O)c4ccccc4)c4ccccc4)C(C)=C1C3(C)C)[C@]1(OC(C)=O)CO[C@@H]1C[C@@H]2O (some centres undefined) | 1 |
| O=[N+]([O-])O[C@H]1CO[C@H]2[C@@H]1OC[C@H]2O[N+](=O)[O-] | -1 |
| O=C(O)C1CC([C@@H]2CCCCN2)CN2CCCCC12 (some centres undefined) | -1 |
| c1ccc(CC2=NCCN2)cc1 | 1 |
| Cc1ccc(O)cc1 | -1 |
| CNc1ccccc1C(=O)N1CCc2c([nH]c3ccccc23)C1=O | -1 |
| Cc1cc(=O)c2c(O)c(C)c(O)cc2o1 | -1 |
| C=C(C)/C=C1/C=CC(=O)C(C)=C1 | 1 |
| COc1cc(O)c(C(=O)c2ccccc2)cc1O | -1 |
| CC1(C)C2CC[C@]3(C)C(C(=O)C=C4[C@@H]5C[C@@](C)(C(=O)O)CC[C@]5(C)CC[C@]43C)[C@@]2(C)CC[C@@H]1O (some centres undefined) | -1 |
| CC(=O)OCC(CCn1cnc2cnc(N)nc21)COC(C)=O | -1 |
| CC(=O)O[C@@](C)(CCC=C(C)C)C1CC=C(C)CC1 (some centres undefined) | -1 |
| COC(=O)[C@H]1[C@H]2C[C@H]3c4[nH]c5ccccc5c4CCN3C[C@H]2CC[C@@H]1O | -1 |
| C=CC1=C(C(=O)O)N2C(=O)[C@@H](NC(=O)/C(=N/O)c3csc(N)n3)[C@H]2SC1 | -1 |
| NC[C@@H]1O[C@H](O[C@@H]2[C@@H](CO)OC(O[C@@H]3[C@@H](O)[C@H](N)C[C@H](N)[C@H]3OC3O[C@H](CN)[C@@H](O)[C@H](O)[C@H]3N)[C@@H]2O)[C@H](N)[C@@H](O)[C@@H]1O (some centres undefined) | -1 |
| CC(=C(CCOP(=O)(O)O)SC(=O)c1ccccc1)N(C=O)Cc1cnc(C)nc1N | -1 |
| O=c1ccc2cc(O)c(O)cc2o1 | -1 |
| COc1cc(OC)c2c(c1)O[C@H](c1ccc(OC)c(OC)c1)[C@@H](O)C2 | -1 |
| Cc1c(O)cc(O)c2c(=O)c(-c3ccc(O)cc3)coc12 | -1 |
| O[C@H]1C=C2CCN3Cc4cc5c(cc4C(C23)[C@@H]1O)OCO5 (some centres undefined) | 1 |
| NC/C=C/C(=O)O | -1 |
| O=C(O)c1cc(=O)c2ccc(Cl)cc2[nH]1 | -1 |
| NC(=O)c1ncn([C@@H]2O[C@H](CO)[C@@H](O)[C@H]2O)c1O | -1 |
| COc1ccc(C(=O)c2ccccc2)c(O)c1 | 1 |
| C=CCc1ccc2c(c1)OCO2 | -1 |
| N#Cc1c(Cl)c(Cl)c(Cl)c(C#N)c1Cl | -1 |
| CN=C(NC#N)NCCSCc1nc[nH]c1C | -1 |
| C[N+](C)(C)CCOP(=O)([O-])OP(=O)(O)OC[C@H]1OC(n2ccc(N)nc2=O)[C@H](O)[C@@H]1O (some centres undefined) | -1 |
| CN1CCc2cc3c(cc2C1O)OCO3 (centres undefined) | -1 |
| CCC(C(N)=O)c1ccccc1 (centres undefined) | -1 |
| COc1c(CC=C(C)C)c2c(c3oc(=O)c(-c4ccc(O)cc4)c(O)c13)C=CC(C)(C)O2 | -1 |
| CN1Cc2c(ccc3c2OCO3)C2C(O)Cc3cc4c(cc3C21)OCO4 (centres undefined) | -1 |
| COC(=O)C1[C@H]2C[C@H]3c4[nH]c5ccccc5c4CCN3C[C@@H]2CC[C@@H]1O (some centres undefined) | -1 |
| COc1cc(O)c2c(=O)cc(C)oc2c1CC=C(C)C | 1 |
| COc1ccc2c(c1)OC[C@@H](Cc1ccc(OC)c(OC)c1)[C@H]2O | -1 |
| O=c1ccc2ccccc2o1 | -1 |
| C1CCc2nnnn2CC1 | -1 |
| Cc1cc(=O)c2c(O)cc(O)c(C)c2o1 | -1 |
| COc1ccc2c(c1)OC[C@@H](Cc1ccc(OC)c(OC)c1)[C@@H]2O | -1 |
| COc1ccc(-c2c(O)c3cc4c(c(CC=C(C)C)c3oc2=O)OC(C)(C)CC4)cc1 | -1 |
